# target: human TRPA1 (Homo sapiens)
# Construct: expressed in transfected cells; host or cells: HEK-293
# Sequence (O75762 whole entry): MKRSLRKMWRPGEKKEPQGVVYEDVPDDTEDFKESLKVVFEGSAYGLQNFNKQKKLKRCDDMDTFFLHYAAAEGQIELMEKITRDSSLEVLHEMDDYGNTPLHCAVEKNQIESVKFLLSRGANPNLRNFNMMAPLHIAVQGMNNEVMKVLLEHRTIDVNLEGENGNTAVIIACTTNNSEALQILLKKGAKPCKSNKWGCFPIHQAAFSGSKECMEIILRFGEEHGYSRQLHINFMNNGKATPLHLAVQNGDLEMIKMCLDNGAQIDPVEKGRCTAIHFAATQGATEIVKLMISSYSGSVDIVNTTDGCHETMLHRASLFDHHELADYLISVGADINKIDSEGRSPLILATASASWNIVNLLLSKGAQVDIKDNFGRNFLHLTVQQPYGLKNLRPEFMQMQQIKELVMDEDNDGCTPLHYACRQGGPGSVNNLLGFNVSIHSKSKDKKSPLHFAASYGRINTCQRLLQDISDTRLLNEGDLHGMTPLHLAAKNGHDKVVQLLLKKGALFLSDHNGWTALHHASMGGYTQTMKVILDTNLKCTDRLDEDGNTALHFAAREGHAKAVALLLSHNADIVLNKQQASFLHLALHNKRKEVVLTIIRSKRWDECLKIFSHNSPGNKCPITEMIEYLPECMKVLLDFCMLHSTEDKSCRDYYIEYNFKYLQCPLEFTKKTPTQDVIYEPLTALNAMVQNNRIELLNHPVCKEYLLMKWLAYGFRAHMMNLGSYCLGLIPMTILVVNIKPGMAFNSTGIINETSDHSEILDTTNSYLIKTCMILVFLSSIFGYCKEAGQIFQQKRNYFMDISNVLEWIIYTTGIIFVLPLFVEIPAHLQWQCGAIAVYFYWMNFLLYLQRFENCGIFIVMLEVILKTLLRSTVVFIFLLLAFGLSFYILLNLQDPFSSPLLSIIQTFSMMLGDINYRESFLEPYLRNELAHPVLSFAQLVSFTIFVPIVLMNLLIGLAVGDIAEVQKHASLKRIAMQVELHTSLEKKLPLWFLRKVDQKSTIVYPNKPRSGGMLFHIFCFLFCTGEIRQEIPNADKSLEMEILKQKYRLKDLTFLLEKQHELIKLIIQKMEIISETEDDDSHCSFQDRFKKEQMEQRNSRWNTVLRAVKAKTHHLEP
# assay_info: Pre-Incubation Test Method, TRPA1 (FLIPR intracellular calcium, AITC activator)
# Format: cell-based
# condition: TRPA1; HEK-293 cells; test compound final concentration 100 μM, 30 minutes pre-incubation; activator AITC 50 μM
measurement_name: Pre-incubation % Regulation (%)
Give the value, in units of %, as a plain number.

Answered cases to consult:
> print(dat)
                                   compound  reading.unit  experimental.result
1  Cc1cc(O)ccc1Cl [4-chloro-3-methylphenol]             %                −0.43
2  CC(C)C(=O)OCCOc1ccccc1 [Phenoxyethyl Isobutyrate, phenoxyethyl isobutyrate]             %                 36.8
3  OCc1ccccc1 [Benzyl Alcohol, benzyl alcohol]             %                14.61
4  C=C1CCC(C)C(C)(C)C1/C=C/C(C)=O (centres unmarked)             %                23.55

Query compound follows.
// query Looking for the measured Pre-incubation % Regulation of Cc1cc(O)cc(C)c1Cl [Chloroxylenol, chloroxylenol] , can you help?
// result −0.08
